- Target: HCV NS5B polymerase (His-tagged, C-terminal 21 amino acid deleted NS5B, HC-J4) (Hepatitis C virus genotype 1b, UniProt O92972)
- Construct: The cDNA encoding NS5B amino acid 1-570 (HC-J4, genotype 1b); His tag (His6, from pET-21b) (C); made in house; host or cells: E. coli BL21 (DE3)
- Sequence (O92972 2417-3000, looked up, stated change not applied): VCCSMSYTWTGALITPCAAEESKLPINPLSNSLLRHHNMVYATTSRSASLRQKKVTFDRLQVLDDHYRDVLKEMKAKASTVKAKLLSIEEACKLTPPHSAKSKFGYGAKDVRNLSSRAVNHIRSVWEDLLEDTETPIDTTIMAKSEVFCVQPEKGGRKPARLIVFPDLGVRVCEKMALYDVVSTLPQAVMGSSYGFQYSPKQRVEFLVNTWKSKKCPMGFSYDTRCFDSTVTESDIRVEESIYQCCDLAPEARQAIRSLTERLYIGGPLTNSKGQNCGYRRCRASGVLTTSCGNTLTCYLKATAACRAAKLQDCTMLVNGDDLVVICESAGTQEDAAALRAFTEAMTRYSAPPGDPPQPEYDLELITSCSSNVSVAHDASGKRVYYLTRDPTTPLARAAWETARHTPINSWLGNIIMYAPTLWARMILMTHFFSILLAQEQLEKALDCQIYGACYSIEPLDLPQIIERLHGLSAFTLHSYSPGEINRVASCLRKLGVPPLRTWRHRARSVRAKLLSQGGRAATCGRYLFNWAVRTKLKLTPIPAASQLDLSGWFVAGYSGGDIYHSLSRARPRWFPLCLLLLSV
- Experiment Summary: NS5b polymerase assay (biochemical RdRp assay, 3H-GTP incorporation, SPA beads)
- Set-up: species or system HCV genotype 1b
- Details: NS5B Polymerase Assay IC50, 200 nM enzyme, 3H-GTP incorporation, 2 h at 25° C.
pIC50: −log10 of the molar value.
Readout Name: pIC50

Recorded pIC50, per entry:
* CC1(C)CC(=O)C2=C(C1)Nc1ccccc1N(C(=O)Cc1ccccc1)C2c1cccc(O)c1 (stereo not shown) | < 4.37
* CC(=O)N1c2ccccc2NC2=C(C(=O)CCC2)C1c1ccc(Cl)cc1Cl (stereo not shown) | < 4.37
* CC(=O)N1c2ccccc2NC2=C(C(=O)CC(C)(C)C2)C1c1ccccc1Cl (stereo not shown) | < 4.37

Request: # pIC50 lookup, item CC(C)C(=O)N1c2ccccc2NC2=C(C(=O)CC(C)(C)C2)C1c1cccs1 (stereo not shown)
Result: < 4.48

* * *

- Target: HCV NS5B polymerase (His-tagged, C-terminal 21 amino acid deleted NS5B, HC-J4) (Hepatitis C virus genotype 1b)
- Construct: The cDNA encoding NS5B amino acid 1-570 (HC-J4, genotype 1b); His tag (His6, from pET-21b) (C); made in house; host or cells: E. coli BL21 (DE3)
- Experiment Summary: NS5b polymerase assay (biochemical RdRp assay, 3H-GTP incorporation, SPA beads)
- Design: species or system HCV genotype 1b
- Details: NS5B Polymerase Assay IC50, 200 nM enzyme, 3H-GTP incorporation, 2 h at 25° C.
pIC50: −log10 of the molar value.
Listed here are compounds together with their documented pIC50.

Request: Recorded pIC50 of CC1(C)CC(=O)C2=C(C1)Nc1ccccc1N(C(=O)Cc1ccccc1)C2c1cccs1 (stereo not drawn) , please.
Result: < 4.37

Request: // lookup pIC50 for COc1c(Cl)cc(Cl)cc1C1C2=C(CC(C)(C)CC2=O)Nc2ccccc2N1C(=O)C(F)(F)F (stereo not drawn)
Result: < 4.37

Request: Reported pIC50, compound COc1cccc(C2C3=C(CC(C)(C)CC3=O)Nc3ccccc3N2C(=O)Cc2ccccc2)c1 (stereo not drawn) : ____
Result: < 4.37

Request: Which measured pIC50 value corresponds to CC(=O)N1c2ccccc2NC2=C(C(=O)CC(c3ccccc3OCc3ccccc3)C2)C1c1ccc(Cl)cc1Cl (single isomer, unassigned) ?
Result: 4.39

* * *

- Target: HCV NS5B polymerase (His-tagged, C-terminal 21 amino acid deleted NS5B, HC-J4) (Hepatitis C virus genotype 1b)
- Construct: The cDNA encoding NS5B amino acid 1-570 (HC-J4, genotype 1b); His tag (His6, from pET-21b) (C); made in house; host or cells: E. coli BL21 (DE3)
- Experiment Summary: NS5b polymerase assay (biochemical RdRp assay, 3H-GTP incorporation, SPA beads)
- Set-up: species or system HCV genotype 1b
- Details: 200 nM enzyme, 3H-GTP incorporation, 2 h at 25° C.; read-out: NS5B Polymerase Assay IC50
IC50 for assorted compounds

Consider the reported IC50 for these compounds:
• COc1ccc(C2CC(=O)C3=C(C2)Nc2ccccc2N(C(=O)c2ccccc2)C3c2ccc(Cl)cc2)cc1OC (mixture of isomers) = > 33.3 µM
• Cc1ccc(C2CC(=O)C3=C(C2)Nc2ccccc2N(C(=O)c2ccccc2)C3c2cccc(Cl)c2)cc1 (mixture of isomers) = > 33.3 µM
• COc1ccc(C2C3=C(CC(C)(C)CC3=O)Nc3ccccc3N2C(C)=O)cc1OCc1ccccc1 (stereo not drawn) = 15.9 µM

Request: Any idea what its IC50 is? The compound is COc1ccc(C2C3=C(CC(c4ccc(Cl)cc4)CC3=O)Nc3ccccc3N2C(=O)C(F)(F)F)cc1 (mixture of isomers)
Result: > 33.3 µM

Request: Give its IC50 value. Item: CCCCCC(=O)N1c2ccccc2NC2=C(C(=O)CC(c3ccccc3)C2)C1c1ccccc1F (stereo not drawn)
Result: > 33.3 µM

Request: Entry Cc1ccc(C2C3=C(CC(c4cccc([N+](=O)[O-])c4)CC3=O)Nc3ccccc3N2C(=O)c2ccccc2)cc1 (mixture of isomers) has what IC50?
Result: > 42.7 µM

* * *

Listed below: IC50 values for each entry.
- Target: HCV NS5B polymerase (His-tagged, C-terminal 21 amino acid deleted NS5B, HC-J4) (Hepatitis C virus genotype 1b, UniProt O92972)
- Construct: The cDNA encoding NS5B amino acid 1-570 (HC-J4, genotype 1b); His tag (His6, from pET-21b) (C); made in house; host or cells: E. coli BL21 (DE3)
- Experiment Summary: NS5b polymerase assay (biochemical RdRp assay, 3H-GTP incorporation, SPA beads)
- Set-up: species or system HCV genotype 1b
- Details: NS5B Polymerase Assay IC50 (μM)

Below are worked cases with known answers.
• O=C1CC(c2ccccc2OCc2ccccc2)CC2=C1C(C(Br)=Cc1ccccc1)Nc1ccccc1N2 (mixture of isomers) = > 133 µM
• COc1ccc(C2CC(=O)C3=C(C2)Nc2ccccc2NC3c2cccc(Cl)c2Cl)cc1 (stereo not drawn) = > 42.7 µM

Now consider the entry below.
Request: Entry O=C1C[C@@H](c2ccccc2OCc2ccccc2)CC2=C1C(c1cccc(OC(=O)c3ccc(Cl)cc3)c1)Nc1ccccc1N2 (single isomer, unassigned) : reported IC50 = ?
Result: 84.5 µM

* * *

Readout Name: melting point (°C)
Kindly provide the numeric value in °C only, without the unit symbol.

* CC(=O)N1c2ccccc2NC2=C(C(=O)CC(C)(C)C2)C1/C(Cl)=C/c1ccccc1 (centres unmarked) | 258
* CC1(C)CC(=O)C2=C(C1)Nc1ccccc1N(C(=O)CCc1ccccc1)C2c1ccc(Cl)cc1Cl (centres unmarked) | 242
* CC(=O)N1c2c(cccc2C(=O)NCCCN(C)C)NC2=C(C(=O)CC(C)(C)C2)C1c1ccc(Cl)cc1Cl (centres unmarked) | 226
* CC1(C)CC(=O)C2=C(C1)Nc1ccc(CO)cc1NC2c1ccc(Cl)cc1Cl (centres unmarked) | 168
* CC(=O)N1c2c(CNCCN3CCOCC3)cccc2NC2=C(C(=O)CC(C)(C)C2)C1c1ccc(Cl)cc1Cl (centres unmarked) | 236

Request: melting point for CC(=O)N1c2c(C#N)cccc2NC2=C(C(=O)CC(C)(C)C2)C1c1ccc(Cl)cc1Cl (centres unmarked) ?
Result: 248

Request: Can you look up the measured melting point of CCOC(=O)c1cccc2c1NC(c1ccc(Cl)cc1Cl)C1=C(CC(C)(C)CC1=O)N2 (centres unmarked) for me?
Result: 208

Request: Quick check: melting point of C=CCCC(=O)N1c2ccccc2NC2=C(C(=O)CC(C)(C)C2)C1c1ccc(Cl)cc1Cl (centres unmarked) ?
Result: 200

Request: Which melting point value is on record for CC(=O)N1c2c(CNCCCN(C)C)cccc2NC2=C(C(=O)CC(C)(C)C2)C1c1ccc(Cl)cc1Cl (centres unmarked) ?
Result: 258

* * *

Catalogue of compounds with associated IC50
- Target: HCV NS5B polymerase (His-tagged, C-terminal 21 amino acid deleted NS5B, HC-J4) (Hepatitis C virus genotype 1b, UniProt O92972)
- Construct: The cDNA encoding NS5B amino acid 1-570 (HC-J4, genotype 1b); His tag (His6, from pET-21b) (C); made in house; host or cells: E. coli BL21 (DE3)
- Experiment Summary: NS5b polymerase assay (biochemical RdRp assay, 3H-GTP incorporation, SPA beads)
- Parameters: species or system HCV genotype 1b
- Details: NS5B Polymerase Assay IC50 (μM)

- COc1ccc([C@@H]2CC(=O)C3=C(C2)Nc2ccccc2N[C@H]3c2c[nH]c3ccccc23)cc1: > 42.7 µM
- CC1(C)CC(=O)C2=C(C1)Nc1ccccc1NC2c1cccc(OCc2ccccc2)c1 (stereo not shown): 32.9 µM
- CC1(C)CC(=O)C2=C(C1)Nc1ccccc1NC2c1ccc(OC(F)(F)F)cc1 (stereo not shown): > 133 µM

Let us move to another entry and its IC50.
Request: If you can, please state the reported IC50 value of O=C1CC(c2ccc(Cl)cc2)CC2=C1C(c1ccccc1OCc1ccccc1)Nc1ccccc1N2 (stereo not shown) .
Result: > 42.7 µM

* * *

Each item that follows carries a reported pEC50.
- System: HCV replicon RNA replication in Huh-7 luc/neo (Huh-Luc) cells
- Experiment Summary: HCV replicon assay (stable replicon cell reporter assay, luciferase read-out)
- Format: cell-based, HCV type 1b
- Details: read-out: Replicon Assay EC50; Huh-Luc cells, three days incubation, luciferase activity
API: returns pEC50 as number; meaning -log10 of concentration in mol/L.

Examples with answers:
• CC(=O)N1c2ccccc2NC2=C(C(=O)CC(C)(C)C2)C1c1ccccc1OCc1ccccc1 (stereo not shown) [compound 44] = 5.02
• CC(=O)N1c2ccccc2NC2=C(C(=O)CC(c3ccccc3OCc3ccccc3)C2)C1c1cccc(OC(=O)c2ccc(Cl)cc2)c1 (single isomer, unassigned) [compound 192] = 5.31
• CC(=O)N1c2ccccc2NC2=C(C(=O)CC(c3ccccc3OCc3ccccc3)C2)C1c1cccc(OCc2ccccc2)c1 (single isomer, unassigned) [compound 189] = 5.40

Request: Which pEC50 reading was recorded for the molecule CC(=O)N1c2ccccc2NC2=C(C(=O)CC(c3ccccc3OCc3ccccc3)C2)C1c1cccc(OCc2ccccc2)c1 (single isomer, unassigned) [compound 190] ?
Result: 5.96

Request: Reported pEC50, molecule CC(=O)N1c2ccccc2NC2=C(C(=O)CC(C)(C)C2)C1c1ccc(Cl)cc1Cl (single isomer, unassigned) [compound 35] : ____
Result: 4.69

Request: Data request, read-out pEC50, for CC(=O)N1c2ccccc2NC2=C(C(=O)CC(C)(C)C2)C1c1ccc(Cl)cc1Cl (single isomer, unassigned) [compound 38]
Result: 4.62
